Attribution: ChEMBL document CHEMBL5725801

Experiment: CaMKII Cell-Based Activity: CaMKII activity in neonatal rat ventricular myocytes (NRVM) was measured by monitoring the phosphorylation level of phospholamban using high-content imaging. NRVMs were plated in a clear bottom 384-well plate in medium supplemented with 10% fetal bovine serum (FBS) and incubated at 37° C., 5% CO2 overnight. The medium was changed to a serum-free medium and compounds were dosed to the cells. The cells were incubated at 37° C., 5% CO2 for 4 hours and were then treated with 100 nM ATX-II (Alomone Labs) to activate CaMKII. 10 minutes after the addition of ATX-II, the cells were fixed with 4% formaldehyde followed by permeabilization with 0.1% triton X100. The fixed cells were stained with an anti-phospho-phospholamban primary antibody (Santa Cruz Biotechnology) and an Alexa488-labeled anti-rabbit IgG secondary antibody (Life Technologies Corporation) as well as Hoechst 33342 (Life Technologies Corporation). The cells were imaged using an ArrayScan VTI (Cellomics) and analyzed for cells containing a positive fluorescent signal at 485 nm, reported as % responder. The % responders were plotted against the compound concentration to determine the compounds EC50.
pEC50: −log10 of the molar value.
Consider the following molecules and their measured pEC50 readings.

{"columns": ["Molecule", "pEC50"],
 "data": [
  ["CCN(CC)[C@@H](C)CNC(=O)c1cc(-c2cnn3ccc(-c4cccs4)nc23)nc(N2CC(S(C)(=O)=O)C2)c1", 7.50],
  ["CCN(CC)[C@@H](C)CNC(=O)c1cc(-c2cnn3ccc(-c4cccs4)nc23)nc(N2CC(OC)C2)c1", 7.86],
  ["O=C(NC[C@]1(CC2CC2)CCCN1)c1ccnc(-c2cnn3ccc(-c4cccs4)nc23)c1", 7.17],
  ["N[C@H]1CCCN(C(=O)c2ccnc(-c3cnn4ccc(-c5cccs5)nc34)c2)C1", 6.66],
  ["CCN(CC)[C@@H](C)CNC(=O)c1cc(NCC2COC2)nc(-c2cnn3ccc(-c4cccs4)nc23)c1", 4.87],
  ["CCN(CC)[C@@H](C)CNC(=O)c1cc(-c2cnn3ccc(-c4cccs4)nc23)nc(N2CC[C@H]2C(=O)NOC)c1", 7.07],
  ["CCN(CC)[C@@H](C)CNC(=O)c1cc(-c2cnn3ccc(-c4ccns4)nc23)nc(N2CC[C@H]2C(=O)NC)c1", 7.49],
  ["CN(C)CCNC(=O)c1ccnc(-c2cnn3ccc(-c4cccs4)nc23)c1", 6.94],
  ["CCN(CC)[C@@H](C)CNC(=O)c1cc(OCc2cccnc2)nc(-c2cnn3ccc(-c4cccs4)nc23)c1", 7.25],
  ["CCN(CC)[C@@H](C)CNC(=O)c1cc(-c2cnn3ccc(-c4cccs4)nc23)nc(N2CCC[C@H]2C(=O)NC)c1", 6.94],
  ["CN1CCC[C@H]1CNC(=O)c1ccnc(-c2cnn3ccc(-c4cccs4)nc23)c1", 6.76],
  ["CCN(CC)[C@@H](C)CNC(=O)c1cc(-c2cnn3ccc(-c4cccs4)nc23)nc(N2CC[C@H]2C(=O)NCC(F)F)c1", 7.56],
  ["Nc1cc(C(=O)N2C3CCNCC2CC3)cc(-c2cnn3ccc(-c4ccccc4)nc23)n1 (centres undefined)", 6.22],
  ["CCN(CC)CCNC(=O)c1ccnc(-c2cnn3ccc(-c4cccs4)nc23)c1", 7.77],
  ["CCN(CC)[C@@H](C)CNC(=O)c1cc(-c2cnn3ccc(-c4cccs4)nc23)nc(N2CCC(C(N)=O)CC2)c1", 6.94],
  ["CCN(CC)[C@@H](C)CNC(=O)c1cc(-c2cnn3ccc(-c4cccs4)nc23)nc(N2CCC(F)(F)C2)c1", 7.55],
  ["CCC(CNC(=O)c1ccnc(-c2cnn3ccc(-c4cccs4)nc23)c1)NC(C)C (centres undefined)", 7.22],
  ["COCCNc1cc(C(=O)N2CC3CCC(C2)NC3)cc(-c2cnn3ccc(-c4cccs4)nc23)n1 (centres undefined)", 6.91],
  ["CCN(CC)[C@@H](C)CNC(=O)c1cc(-c2cnn3ccc(-c4cccs4)nc23)nc(N2CCC[C@@H]2C(=O)NC)c1", 6.09],
  ["C[C@H](N)CNC(=O)c1cc(-c2cnn3ccc(-c4cccs4)nc23)nc(N2CC(O)C2)c1", 5.61],
  ["CC[C@H](CNC(=O)c1cc(-c2cnn3ccc(-c4cccs4)nc23)nc(N2CC[C@H]2C(=O)NC)c1)N(CC)CC (single isomer, unassigned)", 7.46],
  ["Cc1cc(C(=O)N2CCC[C@@H]2CN)cc(-c2cnn3ccc(-c4ccccc4)nc23)n1", 6.68],
  ["CCN(CC)C(C)CNC(=O)c1ccnc(-c2cnn3ccc(-c4ccccc4)nc23)c1 (centres undefined)", 6.99],
  ["CCN(CC)[C@@H](C)CNC(=O)c1cc(NCCN(C)C)nc(-c2cnn3ccc(-c4cccs4)nc23)c1", 7.23],
  ["CCN[C@H](C)CNC(=O)c1ccnc(-c2cnn3ccc(-c4ccccc4)nc23)c1", 7.14],
  ["COc1cc(C(=O)N2CC[C@H](N)C2)cc(-c2cnn3ccc(-c4cccs4)nc23)n1", 6.84],
  ["COC1CN(c2cc(C(=O)N3CC[C@H](N)C3)cc(-c3cnn4ccc(-c5ccccc5)nc34)n2)C1", 7.37],
  ["CCN(CC)[C@@H](C)CNC(=O)c1cc(-c2cnn3ccc(-c4cccs4)nc23)nc(N2CCC[C@H]2C(N)=O)c1", 6.59],
  ["NC[C@H]1CCCCN1C(=O)c1cc(-c2cnn3ccc(-c4ccccc4)nc23)ncc1Cl", 7.45],
  ["CCN(CC)[C@@H](C)CNC(=O)c1cc(NC2CCOCC2)nc(-c2cnn3ccc(-c4cccs4)nc23)c1", 7.62],
  ["CCN(CC)[C@@H](C)CNC(=O)c1cc(-c2cnn3ccc(-c4cccs4)nc23)nc(N2CCO[C@H](CO)C2)c1", 7.36],
  ["CCN(CC)C(=O)[C@@H]1CCN1c1cc(C(=O)NC[C@H](C)N(CC)CC)cc(-c2cnn3ccc(-c4cccs4)nc23)n1", 7.60],
  ["CCN(CC)[C@@H](C)CNC(=O)c1cc(-c2cnn3ccc(-c4cccs4)nc23)nc(N2CC(C)(OC)C2)c1", 8.08],
  ["CCC(N)CNC(=O)c1ccnc(-c2cnn3ccc(-c4cccs4)nc23)c1 (centres undefined)", 7.64]
]}
